Molecular target: EPHB1 (UniProt P54762)
Sequence (P54762 whole entry, looked up): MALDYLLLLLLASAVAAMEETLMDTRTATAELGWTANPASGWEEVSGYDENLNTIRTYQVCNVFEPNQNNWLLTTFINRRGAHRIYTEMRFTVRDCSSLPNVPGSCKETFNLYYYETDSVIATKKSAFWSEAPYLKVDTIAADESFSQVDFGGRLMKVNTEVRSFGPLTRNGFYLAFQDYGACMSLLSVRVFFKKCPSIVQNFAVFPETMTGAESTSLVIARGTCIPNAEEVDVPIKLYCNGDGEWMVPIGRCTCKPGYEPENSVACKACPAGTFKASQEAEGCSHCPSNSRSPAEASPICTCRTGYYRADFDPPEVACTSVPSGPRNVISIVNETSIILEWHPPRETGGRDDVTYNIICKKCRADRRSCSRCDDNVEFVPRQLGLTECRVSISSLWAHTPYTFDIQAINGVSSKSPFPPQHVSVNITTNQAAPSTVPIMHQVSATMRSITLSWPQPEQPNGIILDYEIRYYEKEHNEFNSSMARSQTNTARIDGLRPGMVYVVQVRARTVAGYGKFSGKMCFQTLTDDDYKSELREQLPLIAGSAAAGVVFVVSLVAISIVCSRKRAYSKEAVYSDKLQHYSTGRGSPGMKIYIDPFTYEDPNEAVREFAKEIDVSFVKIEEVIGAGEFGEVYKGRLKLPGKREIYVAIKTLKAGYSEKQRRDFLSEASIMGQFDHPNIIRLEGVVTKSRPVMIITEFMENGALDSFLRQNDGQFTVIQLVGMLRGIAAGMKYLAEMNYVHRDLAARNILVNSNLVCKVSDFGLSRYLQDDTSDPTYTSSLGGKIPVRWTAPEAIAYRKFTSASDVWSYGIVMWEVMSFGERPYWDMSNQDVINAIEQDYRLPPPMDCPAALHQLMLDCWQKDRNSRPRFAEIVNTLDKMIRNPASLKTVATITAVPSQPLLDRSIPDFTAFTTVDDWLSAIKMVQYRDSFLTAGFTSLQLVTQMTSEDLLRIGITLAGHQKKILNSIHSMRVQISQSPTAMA
Assay: phosphorylation enrichment, bacterial display (enrichment ratio); higher = better substrate or ligand; peptides without Tyr show the background
parameter: phosphorylation enrichment

Consider the following illustrative entries.
{"input.sequence": "IVAREYFSDAD [CAMK2A_Y106_E109D_YF]", "assayed.system": "EPHB1 (UniProt P54762)", "phosphorylation enrichment": 0.48}
{"input.sequence": "PATYTYDEYKK [COL8A2_Y648]", "assayed.system": "EPHB1 (UniProt P54762)", "phosphorylation enrichment": 0.745}
{"input.sequence": "AGKEEYSAMRD [HRAS_Y64_Q61K]", "assayed.system": "EPHB1 (UniProt P54762)", "phosphorylation enrichment": 0.467}

--- query ---
Please look at this sequence and report its phosphorylation enrichment: MENFIYESMRF [CYP19A1_Y361_YF] 4.14

###

Target: MERTK (UniProt Q12866)
Sequence (Q12866 whole entry, looked up): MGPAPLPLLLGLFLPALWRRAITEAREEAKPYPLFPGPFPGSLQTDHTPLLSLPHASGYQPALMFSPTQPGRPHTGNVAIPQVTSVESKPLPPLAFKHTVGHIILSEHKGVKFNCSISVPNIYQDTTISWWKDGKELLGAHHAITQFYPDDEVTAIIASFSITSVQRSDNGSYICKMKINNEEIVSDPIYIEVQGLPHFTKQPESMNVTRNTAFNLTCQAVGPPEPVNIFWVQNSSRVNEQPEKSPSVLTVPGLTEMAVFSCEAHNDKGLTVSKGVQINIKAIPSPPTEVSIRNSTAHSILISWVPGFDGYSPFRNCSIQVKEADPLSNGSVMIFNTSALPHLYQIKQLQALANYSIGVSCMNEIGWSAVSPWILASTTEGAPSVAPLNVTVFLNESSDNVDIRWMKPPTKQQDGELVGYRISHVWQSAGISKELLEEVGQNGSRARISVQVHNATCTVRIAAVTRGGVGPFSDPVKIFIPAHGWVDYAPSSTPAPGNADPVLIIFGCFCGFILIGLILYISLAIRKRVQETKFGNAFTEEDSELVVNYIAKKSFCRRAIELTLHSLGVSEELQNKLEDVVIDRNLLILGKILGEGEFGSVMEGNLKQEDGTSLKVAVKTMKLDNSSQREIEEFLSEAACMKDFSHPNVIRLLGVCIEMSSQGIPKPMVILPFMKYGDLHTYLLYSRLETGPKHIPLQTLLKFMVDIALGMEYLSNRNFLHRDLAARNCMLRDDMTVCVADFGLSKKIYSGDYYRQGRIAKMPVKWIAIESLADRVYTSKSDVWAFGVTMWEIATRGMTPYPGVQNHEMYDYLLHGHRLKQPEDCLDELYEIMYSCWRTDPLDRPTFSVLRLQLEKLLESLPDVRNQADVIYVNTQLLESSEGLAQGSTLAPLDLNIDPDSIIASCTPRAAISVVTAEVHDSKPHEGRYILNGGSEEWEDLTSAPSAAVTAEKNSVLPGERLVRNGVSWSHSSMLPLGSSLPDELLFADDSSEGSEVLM
Test: phosphorylation enrichment, bacterial display (enrichment ratio); higher = better substrate or ligand; peptides without Tyr show the background
Each entry belongs to exactly one class, chosen by where its phosphorylation enrichment falls: low-valued = under 0.4, mid-valued = from 0.4 up to 0.5, high-valued = 0.5 and over

{"input.sequence": "EILLSDLRTGY [TGM1_Y365_Y365D]", "group": "mid-valued"}
{"input.sequence": "SAAAIYTVRHP [PMP22_Y117]", "group": "high-valued"}
{"input.sequence": "EIPTQYEAMAS [GFAP_Y242_R239P]", "group": "mid-valued"}
{"input.sequence": "LALTVYADCLA [ABCA4_Y2063_G2059A]", "group": "high-valued"}
{"input.sequence": "CGTPDYIAPEI [PRKCG_Y521]", "group": "mid-valued"}

Next sequence, please.
GET /class?item= LITTLYIGFLG [KCNQ1_Y267] high-valued

###

Target: FGFR1 (UniProt P11362)
Sequence (P11362 whole entry, looked up): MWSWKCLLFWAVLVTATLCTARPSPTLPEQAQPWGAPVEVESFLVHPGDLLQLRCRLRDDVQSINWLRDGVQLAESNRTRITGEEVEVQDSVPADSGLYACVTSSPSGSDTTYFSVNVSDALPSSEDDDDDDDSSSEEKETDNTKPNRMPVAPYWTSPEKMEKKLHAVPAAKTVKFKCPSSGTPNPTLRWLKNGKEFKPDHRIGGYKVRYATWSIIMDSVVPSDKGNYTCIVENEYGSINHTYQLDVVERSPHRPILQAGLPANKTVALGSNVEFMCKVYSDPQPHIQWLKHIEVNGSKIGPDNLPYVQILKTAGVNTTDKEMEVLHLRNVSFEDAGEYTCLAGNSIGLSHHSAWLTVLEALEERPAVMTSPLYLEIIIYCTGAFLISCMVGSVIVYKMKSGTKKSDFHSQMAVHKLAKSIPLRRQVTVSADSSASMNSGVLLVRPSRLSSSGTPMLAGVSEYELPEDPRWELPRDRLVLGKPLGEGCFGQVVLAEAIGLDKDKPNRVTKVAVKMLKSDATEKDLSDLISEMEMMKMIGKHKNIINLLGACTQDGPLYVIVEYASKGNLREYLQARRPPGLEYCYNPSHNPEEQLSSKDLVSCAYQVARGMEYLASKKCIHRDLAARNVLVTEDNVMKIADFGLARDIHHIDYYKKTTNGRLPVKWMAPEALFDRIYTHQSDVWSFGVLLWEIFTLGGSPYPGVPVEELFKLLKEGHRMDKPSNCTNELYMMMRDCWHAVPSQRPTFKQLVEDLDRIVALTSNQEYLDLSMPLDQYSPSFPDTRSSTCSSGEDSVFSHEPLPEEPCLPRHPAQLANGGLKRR
Experiment: phosphorylation enrichment, bacterial display (enrichment ratio); higher = better substrate or ligand; peptides without Tyr show the background
# maps each entry to its phosphorylation enrichment
Form field (numeric): enter value without unit.

{"input.sequence": "KVKPIYFHTRG [AR_Y916_Q920R]", "phosphorylation enrichment": 0.598}
{"input.sequence": "DNKALYDICFR [TUBB3_Y208_E205K]", "phosphorylation enrichment": 0.612}

Please look at this sequence and report its phosphorylation enrichment: RMGNLYDIDED [GRIN2A_Y1246] 0.591

Please look at this sequence and report its phosphorylation enrichment: DGMADYSDPSY [CDC5L_Y459] 0.611

Please look at this sequence and report its phosphorylation enrichment: REVPVYTDSEP [FAM120B_Y368] 0.588

###

System: Fer (mouse)
Assay: phosphorylation enrichment, bacterial display (enrichment ratio); higher = better substrate or ligand; peptides without Tyr show the background
# maps each entry to its phosphorylation enrichment

Consider the following illustrative entries.
{"input.sequence": "QELRRYLKSSV [MICA_Y194_G198S]", "phosphorylation enrichment": 0.292}
{"input.sequence": "AIYRRYSKFFD [SH3PXD2B_Y45]", "phosphorylation enrichment": 0.383}
{"input.sequence": "KKLAEYGPQGK [CLCA1_Y147_R152K]", "phosphorylation enrichment": 0.326}
{"input.sequence": "EPYELYCEMGS [CBL_Y371_Q367P]", "phosphorylation enrichment": 3.52}
{"input.sequence": "ILLAGYLVMVI [SLC28A3_Y113]", "phosphorylation enrichment": 0.613}
{"input.sequence": "EFDRLYEEFTR [PIK3R1_Y467_YF]", "phosphorylation enrichment": 6.18}
{"input.sequence": "LTDRGYSFVTT [ACTA1_Y200_E197D]", "phosphorylation enrichment": 0.653}
{"input.sequence": "DWLRRYLENGK [HLA-A_Y195_E190D]", "phosphorylation enrichment": 1.02}
{"input.sequence": "RMGNLYDIDED [GRIN2A_Y1246]", "phosphorylation enrichment": 0.543}
{"input.sequence": "HIKHNYECLVF [XRCC5_Y416_YF]", "phosphorylation enrichment": 0.665}

Please look at this sequence and report its phosphorylation enrichment: GRVYVYHLSEQ [ITGAE_Y551_R552H] 0.531

Please look at this sequence and report its phosphorylation enrichment: PADQAYSWFQH [NDST1_Y711_R709Q_YF] 26.6

Please look at this sequence and report its phosphorylation enrichment: PIFEGYALPHA [ACTA1_Y171_YF] 0.49

Please look at this sequence and report its phosphorylation enrichment: EPFEVYRIVPE [IRF8_Y110_K108E_YF] 0.411

Please look at this sequence and report its phosphorylation enrichment: QLCVSYPGGFT [PROS1_Y259_N258S_YF] 0.775

###

Molecular target: Fes (UniProt P07332)
Sequence (P07332 whole entry, looked up): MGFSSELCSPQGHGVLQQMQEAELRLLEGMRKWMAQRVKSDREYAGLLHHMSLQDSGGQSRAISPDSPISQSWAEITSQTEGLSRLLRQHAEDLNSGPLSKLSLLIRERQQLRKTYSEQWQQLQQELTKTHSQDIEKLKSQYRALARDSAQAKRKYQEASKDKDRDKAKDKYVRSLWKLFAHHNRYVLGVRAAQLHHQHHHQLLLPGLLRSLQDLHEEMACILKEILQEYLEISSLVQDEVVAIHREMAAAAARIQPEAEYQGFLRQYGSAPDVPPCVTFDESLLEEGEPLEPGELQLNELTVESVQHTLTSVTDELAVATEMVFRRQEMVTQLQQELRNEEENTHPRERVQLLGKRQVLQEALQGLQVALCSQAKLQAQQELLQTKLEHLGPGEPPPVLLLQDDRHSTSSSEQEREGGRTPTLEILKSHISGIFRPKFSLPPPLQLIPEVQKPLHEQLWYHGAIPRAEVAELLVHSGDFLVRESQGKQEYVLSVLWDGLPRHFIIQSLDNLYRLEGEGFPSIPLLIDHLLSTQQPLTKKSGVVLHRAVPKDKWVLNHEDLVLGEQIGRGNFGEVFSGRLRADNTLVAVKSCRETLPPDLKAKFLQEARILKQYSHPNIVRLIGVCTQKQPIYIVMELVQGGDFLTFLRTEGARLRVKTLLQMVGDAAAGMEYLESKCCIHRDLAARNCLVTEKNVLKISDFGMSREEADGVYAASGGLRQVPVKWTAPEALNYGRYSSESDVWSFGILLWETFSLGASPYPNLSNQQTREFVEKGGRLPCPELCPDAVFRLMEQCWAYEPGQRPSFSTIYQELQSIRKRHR
Test: phosphorylation enrichment, bacterial display (enrichment ratio); higher = better substrate or ligand; peptides without Tyr show the background
# maps each entry to its phosphorylation enrichment
Form field (numeric): enter value without unit.

Consider the following illustrative entries.
{"input.sequence": "MVTSGYKAKTI [EFR3A_Y447]", "phosphorylation enrichment": 0.458}
{"input.sequence": "QAKRKYQEASK [FES_Y156]", "phosphorylation enrichment": 0.772}
{"input.sequence": "AEVIWYKGDEV", "phosphorylation enrichment": 1.41}
{"input.sequence": "QDEHGYISLCF [HSPB1_Y133_R136L]", "phosphorylation enrichment": 3.71}
{"input.sequence": "FALAEYTEVKT [ALDH1A3_Y497_YF]", "phosphorylation enrichment": 1.11}
{"input.sequence": "GMTRNYIIFIE [BCO2_Y294]", "phosphorylation enrichment": 0.921}
{"input.sequence": "LEAVSYSSRYA [RNLS_Y190]", "phosphorylation enrichment": 0.704}
{"input.sequence": "REENGYNTYAS [FGF10_Y161_I156R]", "phosphorylation enrichment": 1.73}
{"input.sequence": "SNPAYYVLEGV [INPPL1_Y987_N982S]", "phosphorylation enrichment": 0.921}
{"input.sequence": "WEPFGYAVTRC [PTPRT_Y412]", "phosphorylation enrichment": 0.999}

Look up and report phosphorylation enrichment, with Fes (UniProt P07332) as system, for QTENKYVSVSG [EIF2AK3_Y565_D566V] 1.51

###

Biological target: Grb2 SH2 (UniProt P62993)
Sequence (P62993 whole entry, looked up): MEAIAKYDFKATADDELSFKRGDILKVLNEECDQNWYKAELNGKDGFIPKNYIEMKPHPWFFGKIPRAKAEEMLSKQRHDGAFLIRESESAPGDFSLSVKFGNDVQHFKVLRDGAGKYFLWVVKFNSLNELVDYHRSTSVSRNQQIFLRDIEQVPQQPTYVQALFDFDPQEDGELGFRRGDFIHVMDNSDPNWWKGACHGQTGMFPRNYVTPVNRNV
Test: SH2 binding enrichment of the phosphorylated peptide, bacterial display (enrichment ratio); higher = better substrate or ligand; peptides without Tyr show the background
# maps each entry to its SH2 binding enrichment
Form field (numeric): enter value without unit.

Consider the following illustrative entries.
{"input.sequence": "IDDNEYAFLKA [HNF4A_Y286_YF]", "assayed.system": "Grb2 SH2 (UniProt P62993)", "parameter": "SH2 binding enrichment", "endpoint.result": 0.79}
{"input.sequence": "CTTIHKNFMCN [TP53_Y234_Y234K_YF]", "assayed.system": "Grb2 SH2 (UniProt P62993)", "parameter": "SH2 binding enrichment", "endpoint.result": 1.1}
{"input.sequence": "RLGNQYVNVMN [SLC3A1_Y461]", "assayed.system": "Grb2 SH2 (UniProt P62993)", "parameter": "SH2 binding enrichment", "endpoint.result": 15.4}
{"input.sequence": "IDSTPYGQWYE [RPS8_Y109_R110G]", "assayed.system": "Grb2 SH2 (UniProt P62993)", "parameter": "SH2 binding enrichment", "endpoint.result": 0.703}
{"input.sequence": "RNFVHYVQGLK [VWF_Y1400_R1399H]", "assayed.system": "Grb2 SH2 (UniProt P62993)", "parameter": "SH2 binding enrichment", "endpoint.result": 1.14}

Look up and report SH2 binding enrichment, with Grb2 SH2 (UniProt P62993) as system, for AACQHYGVRTC [NR4A2_Y275] 1

Look up and report SH2 binding enrichment, with Grb2 SH2 (UniProt P62993) as system, for RFVTRYIFNRE [HLA-DQB1_Y62_YF] 0.627

###

Molecular target: SHP2-C SH2
Assay: SH2 binding enrichment of the phosphorylated peptide, bacterial display (enrichment ratio); higher = better substrate or ligand; peptides without Tyr show the background
parameter: SH2 binding enrichment
Form field (numeric): enter value without unit.

Consider the following illustrative entries.
{"input.sequence": "HVSISYDIPLT [GAB1_Y307_P311L]", "SH2 binding enrichment": 0.91}
{"input.sequence": "ALERPYTSKHS [NANS_Y71]", "SH2 binding enrichment": 0.529}

Please look at this sequence and report its SH2 binding enrichment: TQTPPYVKKHR [LARP1B_Y457_P462R] 0.956

Please look at this sequence and report its SH2 binding enrichment: AFHGEYIPTVF [RAC2_Y32_P29H] 0.59

Please look at this sequence and report its SH2 binding enrichment: KAIMTYVFSFF [ACTN4_Y260_S262F_YF] 1.19
